Below, each entry is listed with its recorded κ, U69,593 Ke.
# Tested Target: cloned human κ-opioid receptor (Homo sapiens, UniProt P41145)
# Sequence (P41145 whole entry): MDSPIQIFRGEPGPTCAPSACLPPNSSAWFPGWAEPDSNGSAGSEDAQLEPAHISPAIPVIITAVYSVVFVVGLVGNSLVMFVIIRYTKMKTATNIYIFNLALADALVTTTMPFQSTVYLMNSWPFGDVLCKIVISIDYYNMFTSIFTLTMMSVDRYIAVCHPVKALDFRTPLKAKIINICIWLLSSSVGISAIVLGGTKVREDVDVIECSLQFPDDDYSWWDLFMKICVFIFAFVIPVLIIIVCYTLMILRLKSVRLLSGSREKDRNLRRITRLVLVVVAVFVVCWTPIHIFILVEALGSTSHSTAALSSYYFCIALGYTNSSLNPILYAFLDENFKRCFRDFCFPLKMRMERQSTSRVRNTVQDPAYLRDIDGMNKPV
# Experiment Summary: Inhibition of U69,593-stimulated [35S]GTPγS binding
# Test Context: antagonism of U69,593-stimulated [35S]GTPγS binding, CHO cells; means ± SE, at least three experiments
Response body: numeric value in nM, unit text excluded.

Below: 3 compounds and their reported κ, U69,593 Ke.
compound=COc1ccc2c(c1)CN[C@@](C)(C(=O)N[C@H](CN1CC[C@@](C)(c3cccc(O)c3)[C@@H](C)C1)C(C)C)C2 scale_unit=nM assay_result=0.93
compound="COc1ccc2c(c1)CNC(C(=O)NC(CN1CCC(C)(c3cccc(O)c3)C(C)C1)C(C)C)C2 (stereo not shown)" scale_unit=nM assay_result=0.06
compound=CC(C)[C@@H](CN1CC[C@@](C)(c2cccc(O)c2)[C@@H](C)C1)NC(=O)[C@H]1Cc2ccc(O)cc2CN1 scale_unit=nM assay_result=0.02

Now look at this entry.
Value sought: κ, U69,593 Ke, system cloned human κ-opioid receptor (Homo sapiens, UniProt P41145), item CCC(C)C(CN1CCC(C)(c2cccc(O)c2)C(C)C1)NC(=O)C1Cc2ccc(O)cc2CN1 (stereo not shown) . Result: 0.03

====

# Tested Target: cloned human δ-opioid receptor (Homo sapiens)
# Construct: expressed in transfected cells; host or cells: CHO cells
# Sequence (P41143 whole entry): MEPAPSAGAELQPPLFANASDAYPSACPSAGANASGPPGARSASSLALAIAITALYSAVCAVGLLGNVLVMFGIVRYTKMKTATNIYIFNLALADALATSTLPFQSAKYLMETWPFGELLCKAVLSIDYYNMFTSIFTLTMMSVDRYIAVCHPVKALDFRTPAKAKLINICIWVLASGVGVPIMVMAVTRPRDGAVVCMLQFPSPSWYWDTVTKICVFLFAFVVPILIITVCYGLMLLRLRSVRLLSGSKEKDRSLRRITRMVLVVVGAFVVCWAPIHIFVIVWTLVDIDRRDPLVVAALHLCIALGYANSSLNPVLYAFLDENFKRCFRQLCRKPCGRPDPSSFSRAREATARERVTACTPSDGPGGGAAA
# Experiment Summary: Inhibition of DPDPE-stimulated [35S]GTPγS binding
# Format: biochemical
Quantity: Kb (µM)
Response body: numeric value in µM, unit text excluded.

Below: 3 compounds and their reported Kb.
compound="CC[C@H](C)[C@@H](CN1CC[C@@](C)(c2cccc(OC)c2)[C@@H](C)C1)NC(=O)[C@@]1(C)Cc2ccc(O)cc2CN1 [Compound 8n]" tested_target="cloned human δ-opioid receptor (Homo sapiens)" assay_result=2.1
compound="COc1cccc([C@]2(C)CCN(C[C@@H](NC(=O)[C@H]3Cc4ccc(O)cc4CN3C)C(C)C)C[C@@H]2C)c1 [Compound 8k]" tested_target="cloned human δ-opioid receptor (Homo sapiens)" assay_result=2.3
compound="CC[C@H](C)[C@@H](CN1CC[C@@](C)(c2cccc(O)c2)[C@@H](C)C1)NC(=O)[C@H]1Cc2ccc(O)cc2CN1C [Compound 8j]" tested_target="cloned human δ-opioid receptor (Homo sapiens)" assay_result=0.132

// COc1cccc([C@]2(C)CCN(C[C@@H](NC(=O)[C@H]3Cc4ccc(O)cc4CN3)C(C)C)C[C@@H]2C)c1 [Compound 8d] : Kb value = 0.0212

// COc1cccc([C@]2(C)CCN(C[C@@H](NC(=O)[C@@]3(C)Cc4ccc(O)cc4CN3)C(C)C)C[C@@H]2C)c1 [Compound 8h] : Kb value = 2.2

====

Below, each entry is listed with its recorded δ/κ.
# Tested Target: cloned human κ-opioid receptor (Homo sapiens)
# Experiment Summary: Inhibition of U69,593-stimulated [35S]GTPγS binding
# Test Context: ratio of Ke values, κ selectivity relative to δ
Give the figure only, with no unit attached.

Below: 3 compounds and their reported δ/κ.
compound="COc1ccc2c(c1)CNC(C(=O)NC(CN1CCC(C)(c3cccc(O)c3)C(C)C1)C(C)C)C2 (stereo not drawn)" tested_target="cloned human κ-opioid receptor (Homo sapiens)" quantity=δ/κ assay_result=1970
compound=CC[C@H](C)[C@@H](CN1CC[C@@](C)(c2cccc(O)c2)[C@@H](C)C1)NC(=O)[C@H]1Cc2ccc(O)cc2CN1C tested_target="cloned human κ-opioid receptor (Homo sapiens)" quantity=δ/κ assay_result=1200
compound=COc1ccc2c(c1)CN[C@@](C)(C(=O)N[C@H](CN1CC[C@@](C)(c3cccc(O)c3)[C@@H](C)C1)C(C)C)C2 tested_target="cloned human κ-opioid receptor (Homo sapiens)" quantity=δ/κ assay_result=40

// "CC(C)[C@@H](CN1CC[C@@](C)(c2cccc(O)c2)[C@@H](C)C1)NC(=O)[C@H]1Cc2ccc(O)cc2CN1C" : δ/κ value = 3070

// CCC(C)C(CN1CCC(C)(c2cccc(O)c2)C(C)C1)NC(=O)C1Cc2ccc(O)cc2CN1 (stereo not drawn) : δ/κ value = 800

// "COc1cccc([C@]2(C)CCN(C[C@@H](NC(=O)[C@H]3Cc4ccc(O)cc4CN3)C(C)C)C[C@@H]2C)c1" : δ/κ value = 573

====

Below, each entry is listed with its recorded Kb.
# Tested Target: cloned human μ-opioid receptor (Homo sapiens)
# Construct: expressed in transfected cells; host or cells: CHO cells
# Sequence (P35372 whole entry): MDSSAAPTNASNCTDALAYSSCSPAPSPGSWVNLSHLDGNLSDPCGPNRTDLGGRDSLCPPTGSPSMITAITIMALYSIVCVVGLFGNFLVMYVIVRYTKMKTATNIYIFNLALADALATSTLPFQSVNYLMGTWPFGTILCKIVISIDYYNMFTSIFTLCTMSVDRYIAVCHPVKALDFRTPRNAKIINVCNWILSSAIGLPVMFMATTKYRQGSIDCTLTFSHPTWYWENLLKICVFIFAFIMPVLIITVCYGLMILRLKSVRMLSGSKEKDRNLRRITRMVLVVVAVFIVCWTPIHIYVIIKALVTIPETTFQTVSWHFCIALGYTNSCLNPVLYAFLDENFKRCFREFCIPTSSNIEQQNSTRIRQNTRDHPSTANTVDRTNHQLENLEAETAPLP
# Experiment Summary: Inhibition of DAMGO-stimulated [35S]GTPγS binding
# Format: biochemical
Response body: numeric value in nM, unit text excluded.

Below: 4 compounds and their reported Kb.
compound="CC[C@H](C)[C@@H](CN1CC[C@@](C)(c2cccc(O)c2)[C@@H](C)C1)NC(=O)[C@@]1(C)Cc2ccc(O)cc2CN1 [Compound 8i]" assay_result=8.7
compound="COc1cccc([C@]2(C)CCN(C[C@@H](NC(=O)[C@H]3Cc4ccc(O)cc4CN3C)C(C)C)C[C@@H]2C)c1 [Compound 8k]" assay_result=880
compound="CC[C@H](C)[C@@H](CN1CC[C@@](C)(c2cccc(O)c2)[C@@H](C)C1)NC(=O)[C@H]1Cc2ccc(O)cc2CN1C [Compound 8j]" assay_result=7.2
compound="COc1ccc2c(c1)CN(C)[C@@](C)(C(=O)N[C@H](CN1CC[C@@](C)(c3cccc(O)c3)[C@@H](C)C1)C(C)C)C2 [Compound 8o]" assay_result=7

Value sought: Kb, system cloned human μ-opioid receptor (Homo sapiens), item COc1cccc([C@]2(C)CCN(C[C@@H](NC(=O)[C@H]3Cc4ccc(O)cc4CN3)C(C)C)C[C@@H]2C)c1 [Compound 8d] . Result: 24

Value sought: Kb, system cloned human μ-opioid receptor (Homo sapiens), item CC[C@H](C)[C@@H](CN1CC[C@@](C)(c2cccc(OC)c2)[C@@H](C)C1)NC(=O)[C@H]1Cc2ccc(O)cc2CN1 [Compound 8f] . Result: 5.1

Value sought: Kb, system cloned human μ-opioid receptor (Homo sapiens), item CC[C@H](C)[C@@H](CN1CC[C@@](C)(c2cccc(OC)c2)[C@@H](C)C1)NC(=O)[C@H]1Cc2ccc(O)cc2CN1C [Compound 8p] . Result: 360

====

# Tested Target: cloned human κ-opioid receptor (Homo sapiens)
# Experiment Summary: Inhibition of U69,593-stimulated [35S]GTPγS binding
# Test Context: ratio of Ke values, κ selectivity relative to μ
Quantity: μ/κ
Give the figure only, with no unit attached.

Below: 3 compounds and their reported μ/κ.
compound="COc1ccc2c(c1)CNC(C(=O)NC(CN1CCC(C)(c3cccc(O)c3)C(C)C1)C(C)C)C2 (stereo not drawn)" tested_target="cloned human κ-opioid receptor (Homo sapiens)" quantity=μ/κ assay_result=857
compound=CC[C@H](C)[C@@H](CN1CC[C@@](C)(c2cccc(OC)c2)[C@@H](C)C1)NC(=O)[C@H]1Cc2ccc(O)cc2CN1C tested_target="cloned human κ-opioid receptor (Homo sapiens)" quantity=μ/κ assay_result=180
compound=CC(C)[C@@H](CN1CC[C@@](C)(c2cccc(O)c2)[C@@H](C)C1)NC(=O)[C@H]1Cc2ccc(O)cc2CN1C tested_target="cloned human κ-opioid receptor (Homo sapiens)" quantity=μ/κ assay_result=1313

// "COc1ccc2c(c1)CN[C@@](C)(C(=O)N[C@H](CN1CC[C@@](C)(c3cccc(O)c3)[C@@H](C)C1)C(C)C)C2" : μ/κ value = 4

// "COc1cccc([C@]2(C)CCN(C[C@@H](NC(=O)[C@H]3Cc4ccc(O)cc4CN3)C(C)C)C[C@@H]2C)c1" : μ/κ value = 649

// "CC[C@H](C)[C@@H](CN1CC[C@@](C)(c2cccc(O)c2)[C@@H](C)C1)NC(=O)[C@H]1Cc2ccc(O)cc2CN1C" : μ/κ value = 66

====

Below, each entry is listed with its recorded melting point.
Structures can show the parent of a compound that is named as a salt.

Below: 3 molecules and their reported melting point.
molecule="CC[C@H](C)[C@@H](CN1CC[C@@](C)(c2cccc(O)c2)[C@@H](C)C1)NC(=O)[C@H]1Cc2ccc(O)cc2CN1C (as salt: hydrochloride)" assay_result="180 °C (dec.)"
molecule="COc1ccc2c(c1)CN(C)[C@@](C)(C(=O)N[C@H](CN1CC[C@@](C)(c3cccc(O)c3)[C@@H](C)C1)C(C)C)C2 (as salt: hydrochloride)" assay_result="199 °C (dec.)"
molecule="COc1cccc([C@]2(C)CCN(C[C@@H](NC(=O)[C@H]3Cc4ccc(O)cc4CN3C)C(C)C)C[C@@H]2C)c1 (as salt: hydrochloride)" assay_result="210 to 215 °C (dec.)"

// CC[C@H](C)[C@@H](CN1CC[C@@](C)(c2cccc(OC)c2)[C@@H](C)C1)NC(=O)[C@H]1Cc2ccc(O)cc2CN1 (as salt: hydrochloride) : melting point value = > 220 °C (dec.)

// CC[C@H](C)[C@@H](CN1CC[C@@](C)(c2cccc(O)c2)[C@@H](C)C1)NC(=O)[C@@]1(C)Cc2ccc(O)cc2CN1 (as salt: hydrochloride) : melting point value = > 220 °C (dec.)
